The measured values listed here are drawn from Sander's compilation of Henry's law constants (doi:10.1002/etc.5620180906).

Test: Henry solubility constant Hcp at 298.15 K (mol/(m3 Pa))
Conditions: reference: Bamford et al. (1999a)
Entries and their measured Henry solubility constant Hcp follow.

Here are 5 compounds together with their reported answers.
1. c1ccc2c(c1)Cc1c-2ccc2ccccc12 [benzo[a]fluorene] | 0.37
2. Cc1cccc2ccccc12 [1-methylnaphthalene] | 0.021
3. c1ccc2c(c1)Cc1ccccc1-2 [2,3-benzindene] | 0.1
4. c1ccc2cc3ccccc3cc2c1 [anthracene] | 0.18
5. c1ccc2c(c1)-c1cccc3cccc-2c13 [benzo[jk]fluorene] | 0.51

Return reported Henry solubility constant Hcp; argument: C1=Cc2cccc3cccc1c23 [acenaphthylene]
0.079

Here is the next compound: c1ccc2c(c1)ccc1c3ccccc3ccc21 [chrysene]
1.9

Now the compound c1cc2c3c(cccc3c1)CC2 [acenaphthene]
0.054

Ok, now Cc1cccc2c1ccc1ccccc12 [1-methylphenanthrene]
0.2

Now the compound c1ccc2c(c1)ccc1ccccc12 [phenanthrene]
0.23

Moving on to the next compound: Cc1ccc2ccccc2c1 [2-methylnaphthalene]
0.019
